System: MS2 coat protein
Method: apparent KD of MS2 coat protein; designed switch direction (-1 OFF switch, 1 ON switch): -1; higher = weaker reporter binding
Run conditions: input ligand: microRNA oligo, concentration not stated
Endpoint label: apparent KD of MS2 coat protein (nM)
Provide the reading as a plain figure in nM.

Recorded apparent KD of MS2 coat protein, per entry:
Sequence string	Recorded result
GCUUGUAGAGGAUAUACGAGGGCCCGAGCGGAUAACACCGCACAUGAGGAUCACCCAUGUAGAAGGCUACCACC [Riquinza] (Eterna round: R96, puzzle: Exclusion 2)	19.1
CAUGUUGACAGAGGAUAUGCAAUGUGAUUUAGGGUAGAAGGCUGAGACAUGAGGAUCACCCAUGUGGGUGCGUUCUAGCGACAA [Atmala] (Eterna round: R96, puzzle: Exclusion NG 1)	19.4
ACGCAUUGCCUUUGGUAGUGCGUAACAUGAGGAUCACCCAUGUAGGAUAUGGUAGGCUUUGCUUACCAGAAGGACAUUAUAUUC [JL ENG3 1.03] (Eterna round: R96, puzzle: Exclusion NG 3)	22.1

Suppose we examine the sequence ACAUGAGGAUCACCCAUGUUCGGCUGGUCCGUCUCGGCUGUCGAGGAUAUAGUUCGGUGUCCGCGCUAGAAGGCGGGAGCUGGC [Aenatbe mod 65] (Eterna round: R96, puzzle: Exclusion NG 3) ; what apparent KD of MS2 coat protein value has been reported? 29.4

Would you kindly repeat that for UAACAUGUAGAAGGAUAUCUGCACGAUUAGUGCAGAGAAGGUCUAACAUGAGGAUCACCCAUGUAGAUCAUUAAUUAAUUAAUU [ENG1/8-B1] (Eterna round: R96, puzzle: Exclusion NG 1) ? 8.43

Quick one: ACAUGAGGAUCACCCAUGUCCGUCUGGUCUGUCUCGGCUGUCGAGGAUAUAGCUCGGUAUCCGCGCUAGAAGGCGGGAGUCGGA [Aenatbe mod 94] (Eterna round: R96, puzzle: Exclusion NG 3) 24.2

* * *

System: MS2 coat protein
Method: apparent KD of MS2 coat protein; designed switch direction (-1 OFF switch, 1 ON switch): -1; higher = weaker reporter binding
Run conditions: input ligand: microRNA oligo, concentration not stated
Output Yes for apparent KD of MS2 coat protein not less than 30 nM; output No otherwise.

Hi team, for GCAGCUAAUGCAGGAUAUCAGCACGUUUAGUGCUGAGAAGGGCACAUGAGGAUCACCCAUGUGAUCAAUUAAUAUUAAUGCUGC [ENG1/11-B2] (Eterna round: R96, puzzle: Exclusion NG 1) , is the recorded apparent KD of MS2 coat protein at or above 30 nM? No

* * *

Tested on: MS2 coat protein
Method: apparent KD of MS2 coat protein; designed switch direction (-1 OFF switch, 1 ON switch): -1; higher = weaker reporter binding
Run conditions: Eterna round: R98; input ligand: FMN 200 uM
Here, each record is paired with measured apparent KD of MS2 coat protein data.
Note: unit nM is implicit; provide only the numeric part.

Recorded results for 6 sequences are shown here.
Sequence string	Recorded result
GAGGACUGUAAUAAUGUAGAAAUACAUGAGGAUCACCCAUGUAAGGAUAUCGUCAGGAAUACUGACGAGAAGGUACAUCAGUCC [Exclusion NG 3/10-A2]	24.8
UAUAUAAUUAAGAGCUGGUCCAAAACAUGAGGAUCACCCAUGUAGGAUAUCAGCACGAUAAGUGCUGAGAAGGACAACCAGCUC [Denovo 85]	15.2
ACCAUUUACUAAUCCUCUAUACAUGAGGAUCACCCAUGUUCUGAGGAUAUCAUCGUUCGCCGCGUUGAGAAGGCAGAGCAUUCG [AriestionMod 1 - Jieux - Exclusion NG 3]	40.8
GGUUGUUACGCAGGAUAUUGCCAACAGGCAGUAGGAUAUCCGAAAGGAGAAGGAUCGCCAACAGGCGAGAAGGGCGGGUUAACC [pwkr exNG2 2xF7 2FMN.10.5]	121
GUCACGAAUGUAGGAUAUCGAGUGGAAUACACUCGAGAAGGACAUGAGGAUCACCCAUGUAAAAUGAAAGAUAAUAAACGUGAC [Exclsuion NG 1/2-B1]	51.7
UAUAUAUAGGCAGGAUAUACAUGUAUAUAUAAUAUAUUAUAUAUUAUUACAUGAGGAUCACCCAUGUAGAAGGGCCAUAAUAUA [LRO035_Exclusion NG 2]	52.7

Next item in the queue.
Consider the sequence UUCUGUGCCCAAAGUUAAAGCACAUGAGGAUCACCCAUGUGAAAGGAUAUGUGGCAUGUAAUGUUAUAGAAGGUUCACAAUCAA [Reveention] and give its measured apparent KD of MS2 coat protein. 22.8

* * *

As shown below, each of these sequences has a reported apparent KD of K4 kissing-loop reporter value.
Tested on: K4 kissing-loop RNA reporter;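 also: bound reporter read as fluorescence of individual clusters on recovered sequencing chips by microscopy, with normalized cluster intensities fitted with a binding model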
Method: apparent KD of K4 kissing-loop reporter; higher = weaker reporter binding
Run conditions: Eterna round: R107; input ligand: none
Answer format: numeric, nM implied, no suffix.

Sequence string	apparent KD of K4 kissing-loop reporter, nM
GAACGGCGGGCGGCCGCCACUGGUAUACGAGUGAUGUUCGGAUAUACAUAAAAUAAGGUAAUUAACAGGACCGGGUCAGAGCCGG [Tryptophan B Same State; Euphoria Solution]	165
AAUUUACAAUAAUCAUUUAAAGGAUCAGAAGGAGCGUGUUAUAACACAGGUAGGUCGCUGAGCGAGUGAUGUUCGCUAUAUACAA [JR_ExcArginiA_Sub002]	90.8
AAUGUACAAGUGAUGUUUGUACUUUCCGAAGGAGCGUCUAAUAAGACAGGUAGGUCGCGGAUACUCUAAAUAAUCAGGUCAUUGA [#06 K4 Arginine A Exclusion]	79.8
AUCCAUAGUGAUGUUGUGAGCGGAGGCACCAAGGAUAUUGCCAGCCCAAGAAGGUGGGUCCCACACACCAGGCAUACAAGUCCGG [theeternabot_exclusion_KL_FMN_A_43]	1160

Could you share which apparent KD of K4 kissing-loop reporter value was measured for GGAUCCACCAGUGAUGUUGGAGAAAACUUCAAGGAUAUGACGAAAGUCAGAAGGUGAUAGACUGGACAAAGUCCGGUCGGAUCCA [FmnA 19 U29+A57] ? 454

What about this sequence? `UGUGUUUACCUGACUCAGUGAUGUUGAGAAGGAGCGUGAGAAGGCACAGGUAGGUCGCUCAACCUAAAUUCAGGUGAGCACUAAA` 173

Now try UUUAUAUUCUGAGGAUAUCGUAUUAAUGAAGUGAUGUUUCAGUAUAUUCUAAUUAUAUAUAAUUUUCGAGAAGGCAGUAUUAUUU [JR_Nu3_SSFMNB_Sub028] . 246

Also UAGUCCUAGUGAUCCUUAUCAAGUGGUGGGCGAGGACCGGUACGGCCGCCACUCGACUAUGCAGUGAUGUUGUAAUCCGGACAAU [Exclusion - Tryptophan A (Freestyle 12)] ? 633

Lookup GUGGUUUACGUAGGAUAUCGGUGAUGAGUAAAUGGAGUGAUGUUCCGAGAUUGAAUAUGAGAUGAGCGAGAAGGGCGGUUUAUGC [FMN B Same State; Euporia Solution 3] 63.1

Input AAACUUGCAGUGAUGUUGCAAGUAGGUGAUACCAGCAUCGAAAGAUGCCCUUGGCAGCACCAUCACUGUAAGUAGGUGCUGUCAA [(H1)-(H2)-(T1)-(T2)-(H)'-(T)'_Design5] 105

Also GUAUGUGGAAACACGUACUUGUAUCCUAGGCAGGAUAUGCGGAAACGCAGAAGGGCCACCGGCGAGUUUAUCCAGUGAUGUUGGA [Ex FMN A 9] , if possible. 291

Next sequence: `UGUGUUUACCUGACUCAGUGAUGUUGAGAAGGAGCGUGCUAAUGCACAGGUAGGUCGCUCAACCUAAAUUCAGGUGAGCACUAAA` 560

* * *

# Lookup of reported apparent KD of MS2 coat protein keyed by entry
System: MS2 coat protein
Method: apparent KD of MS2 coat protein; designed switch direction (-1 OFF switch, 1 ON switch): 1; higher = weaker reporter binding
Run conditions: Eterna round: R95; input ligand: none
The reply should be a number in nM, with the unit left off.

Consider the following illustrative entries.
Sequence string	Units label	Recorded result
AGUCCAGCCUGAGCUGGACAAAAGCAUGUACAUGAGGAUCACCCAUGUCAUGUGCAAGCUUUUUGCUCGUCUUAAUA [Zipper 49 - 5] (puzzle: Sensor for hsa-mir-208a)	nM	70.3
GGUCCCUACGCACAGGAUAUUCUUUUGGCAACAUGAGGAUCACCCAUGUGUGCCGAUCAUGGUUAGAAGAAGGGUGGUAGGGACC [Usisus] (puzzle: Same State 2)	nM	13.5
GAUAAACAUGAGGAUCACCCAUGUAAUAAUAUGGGAGGAUAUCAGAAUGUAUGUAUGUAAUGAGAAGGCCUAAAUG [Mat - Same State 1 - Mod of Eli - D73] (puzzle: Same State 1)	nM	309

Give the measured apparent KD of MS2 coat protein of GUUUGACAUGAGGAUCACCCAUGUCAUACGGACACAGGAUAUCGUGGCCUGAAGCCGUCAUGAGAAGGGUGACCAA [Ceaza] (puzzle: Same State 1) . 12.5

Lookup ACGUCGAUAUCACAGGAUAUACUCACAUCUACAUGAGGAUCACCCAUGUAGCGGUAUUCCGGUGCGUAGAAGGGUGAUGGACGAC [Same State 2 - Mod of Artece v.4] (puzzle: Same State 2) 12.2
